experiment: Thermo Scientific Acclaim RSLC 120 C18, 100 × 2.1 mm, 2.2 µm, 30 °C, 0.2 to 0.48 mL/min, estimated dead time 1.1 min; A: 90% water + 10% methanol + 5 mM ammonium acetate; B: methanol + 5 mM ammonium acetate; gradient (min/%B) 0.1/1 3/39 14/99.9 16/99.9; details: stereoisomer not certain

COMPOUND	LC retention time (min)
CCN1CCCC1CNC(=O)c1cc(S(=O)(=O)CC)c(N)cc1OC (configuration not stated)	5.08
CCCCc1c(C)nc(N(C)C)[nH]c1=O	7.97
CNCC(c1ccc(OC)cc1)C1(O)CCCCC1 (configuration not stated)	6.12
O=C1NC(=O)C(c2ccccc2)(c2ccccc2)N1	8.26
CCOP(=S)(OCC)SCS(=O)(=O)C(C)(C)C	8.98
CC(C)Nc1nc(NC(C)C)[nH]c(=O)n1	8.19
CNC(=C[N+](=O)[O-])NCCSCc1ccc(C[N+](C)(C)[O-])o1	3.98
O=C(O)C(c1ccccc1)C1CCCCN1 (configuration not stated)	5.27
CCOP(=S)(OCC)Oc1cnccn1	8.03
CC1=NNC(=O)N(N=Cc2cccnc2)C1	4.13
CC1CC2(C)C(CCC3C4CCC(O)C4(C)CCC32)CC1=O (configuration not stated)	14.4
Cc1cn(C2CC(N=[N+]=[N-])C(CO)O2)c(=O)[nH]c1=O (configuration not stated)	5.06

====

experiment: Thermo Scientific Acclaim RSLC 120 C18, 100 × 2.1 mm, 2.2 µm, 30 °C, 0.2 to 0.48 mL/min, estimated dead time 1.1 min; A: 90% water + 10% methanol + 5 mM ammonium acetate; B: methanol + 5 mM ammonium acetate; gradient (min/%B) 0.1/1 3/39 14/99.9 16/99.9; conditions: stereoisomer not certain

COMPOUND	UNITS SYMBOL	LC retention time
CC1=CC(=O)NS(=O)(=O)O1	min	2.34
O=C(Nc1ccccc1)Nc1cnns1	min	7.12
CC(NC(=O)C(N)CC(=O)O)C(=O)NC1C(C)(C)SC1(C)C (configuration not stated)	min	6.06
Cc1cccc(Nc2ccccc2C(=O)O)c1C	min	9.29
CCCc1nn(C)c2c(=O)[nH]c(-c3cc(S(=O)(=O)N4CCN(C)CC4)ccc3OCC)nc12	min	9.5
CCC(C)c1cc([N+](=O)[O-])cc([N+](=O)[O-])c1O (configuration not stated)	min	7.92
Cc1ccc(NC(=O)NC(C)(C)c2ccccc2)cc1	min	9.64
CCNP(=S)(OC)OC(C)=CC(=O)OC(C)C (configuration not stated)	min	9.75
O=S(=O)(O)NC1CCCCC1	min	4.12
COC(=O)Nc1cccc(OC(=O)Nc2cccc(C)c2)c1	min	8.72
CC12CCC3c4ccc(O)cc4CCC3C1CCC2O (configuration not stated)	min	10.8
CN(C)S(=O)(=O)Nc1ccccc1	min	7.14

====

assay: Thermo Scientific Acclaim RSLC 120 C18, 100 × 2.1 mm, 2.2 µm, 30 °C, 0.2 to 0.48 mL/min, estimated dead time 1.1 min; A: 90% water + 10% methanol + 5 mM ammonium acetate; B: methanol + 5 mM ammonium acetate; gradient (min/%B) 0.1/1 3/39 14/99.9 16/99.9; conditions: stereoisomer not certain
Recorded LC retention time values for a group of compounds are listed next.

COMPOUND	UNITS SYMBOL	LC retention time
CSc1nnc(C(C)(C)C)c(=O)[nH]1	min	8.04
CC(C)C1CCC(C(=O)NC(Cc2ccccc2)C(=O)O)CC1 (stereo unspecified)	min	11.4
COC(=O)NC(=S)Nc1ccccc1NC(=S)NC(=O)OC	min	6.88
CCNC(=O)NC(=O)C(C#N)=NOC	min	5.58
CC12CCC(=O)C=C1CCC1C2C(O)CC2(C)C(C(=O)CO)CCC12 (stereo unspecified)	min	9.91
COC(=O)c1ccccc1S(=O)(=O)NC(=O)Nc1nc(C)cc(C)n1	min	5.03
CC(C)Cc1ccc(C(C)C(=O)O)cc1 (stereo unspecified)	min	9.72
C=CCC1(C(C)CCC)C(=O)NC(=O)NC1=O (stereo unspecified)	min	8.39
COC1CC(OC2C(C)OC(OC3C(C)=CCC4CC(CC5(C=CC(C)C(C(C)C)O5)O4)OC(=O)C4C=C(C)C(O)C5OCC(=CC=CC3C)C45O)CC2OC)OC(C)C1O (stereo unspecified)	min	13.4
CNC(=C[N+](=O)[O-])NCCSCc1ccc(CN(C)C)o1	min	4.67
CC(Cn1cnc2c(N)ncnc21)OCP(=O)(O)O (stereo unspecified)	min	3.18

====

assay: Thermo Scientific Acclaim RSLC 120 C18, 100 × 2.1 mm, 2.2 µm, 30 °C, 0.2 to 0.48 mL/min, estimated dead time 1.1 min; A: 90% water + 10% methanol + 5 mM ammonium acetate; B: methanol + 5 mM ammonium acetate; gradient (min/%B) 0.1/1 3/39 14/99.9 16/99.9; details: stereoisomer not certain
Measured LC retention time determines class: range 1 (below 7 min), range 2 (7 min to below 8 min), range 3 (8 min or more)

COMPOUND	GROUP LABEL
COC(=O)NS(=O)(=O)c1ccc(N)cc1	range 1
Cc1ccccc1C(=O)Nc1cccc(OC(C)C)c1	range 3
CCNc1nc(NC(C)(C)C)[nH]c(=O)n1	range 3
COC(=O)c1ccccc1CS(=O)(=O)NC(=O)Nc1nc(OC)cc(OC)n1	range 2
CC(C)C1(C)N=C(c2ncccc2C(=O)O)NC1=O (stereo unspecified)	range 1
CC(=O)Nc1ccc(S(=O)(=O)Nc2nccs2)cc1	range 1
CCCCC1C(=O)N(c2ccccc2)N(c2ccccc2)C1=O	range 2
CCc1cccc(CC)c1N(COC)C(=O)C(=O)O	range 2
CCCCc1ncc(C=C(Cc2cccs2)C(=O)O)n1Cc1ccc(C(=O)O)cc1	range 1

====

Recorded LC retention time values for a group of molecules are listed next.
experiment: Thermo Scientific Acclaim RSLC 120 C18, 100 × 2.1 mm, 2.2 µm, 30 °C, 0.2 to 0.48 mL/min, estimated dead time 1.1 min; A: 90% water + 10% methanol + 5 mM ammonium acetate; B: methanol + 5 mM ammonium acetate; gradient (min/%B) 0.1/1 3/39 14/99.9 16/99.9; conditions: stereoisomer not certain
QUANTITY NAME: LC retention time (min)

MOLECULE	UNITS SYMBOL	READOUT NUMBER
O=C(c1ccc(OCCN2CCCCC2)cc1)c1c(-c2ccc(O)cc2)sc2cc(O)ccc12	min	8.86
CC(C)(C)CC(C)(C)c1ccc(O)cc1	min	12.3
O=[N+]([O-])c1cc(C2CCCCC2)c(O)c([N+](=O)[O-])c1	min	9.19
COc1cc(OC)nc(NC(=O)NS(=O)(=O)c2ncccc2C(=O)N(C)C)n1	min	4.32
CN(C)C(=O)Nc1ccccc1	min	5.11
CC12CCC3C(CCC4=C(O)C(=O)CCC43C)C1CCC2=O (configuration not stated)	min	6.61
Cc1cc(C)cc(C(=O)N(NC(=O)c2ccc3c(c2C)CCCO3)C(C)(C)C)c1	min	9.91
CCNc1nc(NC(C)C)[nH]c(=O)n1	min	6
CC(C)NCC(O)c1ccc(NS(C)(=O)=O)cc1 (configuration not stated)	min	3.91
CC(=O)Nc1ccc(S(=O)(=O)Nc2cc(C)on2)cc1	min	4.33
CC(C)(c1ccc(O)cc1)c1ccc(O)cc1	min	8.49
CC(=O)Nc1ccc(S(=O)(=O)Nc2nc(C)cc(C)n2)cc1	min	5.06
CCCCC1=NC2(CCCC2)C(=O)N1Cc1ccc(-c2ccccc2-c2nn[nH]n2)cc1	min	10.1
CC(C)C(N)C(=O)OCC(CO)OCn1cnc2c(=O)[nH]c(N)nc21 (configuration not stated)	min	4.08
CCc1cccc(C)c1N(C(=O)C(=O)O)C(C)COC (configuration not stated)	min	8.29
c1coc(-c2nc3ccccc3[nH]2)c1	min	6.8
CCC1(CC)C(=O)NC(=O)NC1=O	min	4.8
CNCC(O)c1ccc(O)cc1 (configuration not stated)	min	2.26
CCC1(c2ccccc2)C(=O)NC(=O)NC1=O	min	6.1
COCC(C)N(C(=O)CS(=O)(=O)O)c1c(C)csc1C (configuration not stated)	min	6.97
S=c1nc[nH]c2nc[nH]c12	min	2.62
CC(C)N(C(=O)CS(=O)(=O)O)c1ccccc1	min	6.01
CCCCC1C(=O)N(c2ccccc2)N(c2ccc(O)cc2)C1=O (configuration not stated)	min	7.73
CC12CCC3C(CCC4CC(OC5OC(C(=O)O)C(O)C(O)C5O)CCC43C)C1CCC2=O (configuration not stated)	min	10.2
CNC(=O)N(C)c1nc2ccccc2s1	min	8.23
Cc1c(N(C)CS(=O)(=O)O)c(=O)n(-c2ccccc2)n1C	min	4.89
CCCCCCCCCC(Oc1ccccc1)C(=O)O (configuration not stated)	min	11.4
CCN(CC)C(=O)Nc1ccc(OCC(O)CNC(C)(C)C)c(C(C)=O)c1 (configuration not stated)	min	6.76
CCCCCC(C)N (configuration not stated)	min	4.41
CCc1cccc(C)c1N(C(=O)CS(=O)(=O)O)C(C)COC (configuration not stated)	min	8.19
CCCCc1c(C)nc(NCC)[nH]c1=O	min	8.39
CC(C)CC(CN)CC(=O)O (configuration not stated)	min	4.04
COC(=O)Nc1nc2ccccc2[nH]1	min	5.8
CCC1(c2cccc(O)c2)CCCCN(C)C1 (configuration not stated)	min	6.47
NC(=O)N=C(N)N	min	1.73
CCC1(O)CCC2C3CCC4=CC(=O)CCC4C3CCC21C (configuration not stated)	min	14
CCc1ccc(C(=O)NN(C(=O)c2cc(C)cc(C)c2)C(C)(C)C)cc1	min	10.4

The reported numbers originate from the RepoRT retention time repository.
